- target-or-system: human PAH with the R408W mutation (Homo sapiens, UniProt P00439, R408W)
- Construct: expressed in transfected cells
- Sequence (P00439 whole entry R408W): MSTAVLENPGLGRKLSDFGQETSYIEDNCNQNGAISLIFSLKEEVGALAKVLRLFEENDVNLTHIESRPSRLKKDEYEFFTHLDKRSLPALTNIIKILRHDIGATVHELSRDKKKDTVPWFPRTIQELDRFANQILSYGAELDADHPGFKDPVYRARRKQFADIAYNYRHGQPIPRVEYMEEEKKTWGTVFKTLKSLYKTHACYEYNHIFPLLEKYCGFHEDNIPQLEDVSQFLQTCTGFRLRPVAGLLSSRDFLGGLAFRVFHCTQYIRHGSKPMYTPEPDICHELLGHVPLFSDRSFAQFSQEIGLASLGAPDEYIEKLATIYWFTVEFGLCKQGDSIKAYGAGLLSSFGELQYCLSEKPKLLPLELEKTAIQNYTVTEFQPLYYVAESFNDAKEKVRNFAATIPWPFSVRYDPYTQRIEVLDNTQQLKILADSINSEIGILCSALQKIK
- method-notes: Cell Based Phenylalanine Flux Assay;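 further: after compound treatment, cells received sepiapterin plus isotope-labelled Phenylalanine for 4 hours, then labelled Tyrosine in the medium was quantified, 10-point 2-fold dilution series run in duplicate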
- measurement-context: A375 cells expressing R408W PAH; 24 hrs with compound, then 20 µM sepiapterin and 800 µM 13C9,15N-Phenylalanine for 4 hours; 13C-Tyrosine by LC-MS; average where tested multiple times; read-out: AC50
property-name: AC50

Ask: Entry CC(C)(F)c1nnc(N2CCc3[nH]cnc3C2c2cc3c(C4CC4)cccn3n2)o1 (stereo not drawn) has what AC50?
Reply: > 5 µM

Ask: Note, next up: Fc1ncccc1-c1nnc(N2CCc3[nH]cnc3C2c2cc3c(C4CC4)cccn3n2)o1 (stereo not drawn)
Reply: > 5 µM

Ask: What do you have for Fc1cccnc1-c1nnc(N2CCc3[nH]cnc3C2c2cc3c(C4CC4)cccn3n2)o1 (stereo not drawn) ?
Reply: > 5 µM

Ask: Also, Cc1nnc(C(=O)N2CCc3[nH]cnc3C2c2cc3cccc(Cl)n3n2)o1 (stereo not drawn) please.
Reply: 1 to 5 µM

Ask: Now try Cn1ccc(-c2ncc(C(=O)N3CCc4[nH]cnc4[C@H]3c3cc4ccccn4n3)o2)n1 (single isomer, unassigned) .
Reply: 1 to 5 µM

Ask: Same question for O=C(c1nnc(-c2ccc(C(F)(F)F)cn2)o1)N1CCc2[nH]cnc2C1c1cc2ccccn2n1 (stereo not drawn) please.
Reply: > 5 µM

Ask: Queued: CC(C)(O)c1nnc(C(=O)N2CCc3[nH]cnc3C2c2cc3c(F)cccn3n2)o1 (stereo not drawn)
Reply: 1 to 5 µM

Ask: One more compound: c1cc(C2CC2)c2cc(C3c4nc[nH]c4CCN3c3nnc(-c4cnccn4)o3)nn2c1 (stereo not drawn)
Reply: 1 to 5 µM

Ask: Try COCCNc1nnc(C(=O)N2CCc3[nH]cnc3C2c2cc3ccccn3n2)o1 (stereo not drawn) next.
Reply: > 5 µM

Ask: Same for Cc1ccc2c(C(=O)N3CCc4[nH]cnc4C3c3cc4cccc(Cl)n4n3)cnn2c1 (stereo not drawn)
Reply: > 5 µM

Ask: Query O=C(c1cnco1)N1CCc2[nH]cnc2C1c1cc2cccc(Cl)n2n1 (stereo not drawn) next
Reply: 1 to 5 µM

Ask: Try the compound Fc1ccc(-c2nnc(N3CCc4[nH]cnc4[C@@H]3c3cc4ccccn4n3)o2)nc1 (single isomer, unassigned)
Reply: > 5 µM

Ask: Then Cc1cccc2cc(C3c4nc[nH]c4CCN3C(=O)c3nnc(C4CC(F)(F)C4)o3)nn12 (stereo not drawn) ?
Reply: 1 to 5 µM

Ask: Same lookup for CC(C)(F)c1nnc(N2CCc3[nH]cnc3C2c2cc3ccccn3n2)o1 (stereo not drawn) , please.
Reply: > 5 µM

Ask: Then COCCc1ccc2c(C(=O)N3CCc4[nH]cnc4C3c3cc4ccccn4n3)cnn2c1 (stereo not drawn) ?
Reply: > 5 µM

Ask: Same for c1cnc(-c2nnc(N3CCc4[nH]cnc4C3c3cc4c(C5CC5)cccn4n3)o2)nc1 (stereo not drawn)
Reply: 1 to 5 µM

Ask: Also, Cn1ccc(-c2nnc(C(=O)N3CCc4[nH]cnc4C3c3cc4c(OC(F)F)cccn4n3)o2)n1 (stereo not drawn) please.
Reply: > 5 µM

Ask: Try the compound Cc1cccn2nc(C3c4nc[nH]c4CCN3C(=O)c3ccn(-c4ccccn4)n3)cc12 (stereo not drawn)
Reply: > 5 µM

Ask: // query: O=C(c1nccs1)N1CCc2[nH]cnc2C1c1cc2ccccn2n1 (stereo not drawn)
Reply: 1 to 5 µM

Ask: Proceed to COc1cccn2nc(C3c4nc[nH]c4CCN3C(=O)c3cnn4cc(N5CCOCC5)ccc34)cc12 (stereo not drawn)
Reply: > 5 µM

Ask: Moving on to the next compound: Cc1c(C2c3nc[nH]c3CCN2C(=O)c2nnc(-c3cnn(C)c3)o2)nn2ccccc12 (stereo not drawn)
Reply: 1 to 5 µM

Ask: Can you check Cc1nc(C(C)(C)O)oc1C(=O)N1CCc2[nH]cnc2[C@@H]1c1cc2cccc(C(F)(F)F)n2n1 (single isomer, unassigned) next?
Reply: 1 to 5 µM

Ask: Can you check COCc1ncc(C(=O)N2CCc3[nH]cnc3C2c2cc3ccccn3n2)s1 (stereo not drawn) next?
Reply: > 5 µM

Ask: Similarly, O=C(c1nnc(-c2ncccn2)o1)N1CCc2[nH]cnc2C1c1cc2cccc(C(F)(F)F)n2n1 (stereo not drawn) ?
Reply: > 5 µM

Ask: Now consider Fc1cccn2nc([C@H]3c4nc[nH]c4CCN3c3nnc(-c4cccnc4)o3)cc12 (single isomer, unassigned) and answer again.
Reply: > 5 µM

Ask: Entry to check: O=C(c1cnc(-c2cnccn2)o1)N1CCc2[nH]cnc2C1c1cc2ccccn2n1 (stereo not drawn)
Reply: > 5 µM
